assay: Cmax in Sprague-Dawley rat at 3 mg/kg, po or 1 mg/kg, iv measured upto 24 hrs; format: ADME, organism-based; set-up: dose 3 mg/kg, time < 24 hrs, route po; details: in vivo
property-measured: Cmax (µM)
Enter your answer as a number in µM; do not include the unit.

[ask] Entry CCOc1cc(F)c2c(-c3ccc(C(=O)O)c(C(C)C)c3)ncnc2c1 has what Cmax?
[reply] 19

* * *

test: Half life in Sprague-Dawley rat at 3 mg/kg, po or 1 mg/kg, iv measured upto 24 hrs; assay type: ADME, organism-based; conditions: in vivo
property-measured: half-life (min)
Write the answer as a number in min, unit excluded.

[ask] Requested field: half-life. Item: CCOc1cc(F)c2c(-c3ccc(C(=O)O)c(C(C)C)c3)ncnc2c1
[reply] 294

Hello, the source for this data is ChEMBL document CHEMBL5375964, in case you need it.
